# TEST_DESCRIPTION: Confirmatory qHTS for Inhibitors of ATXN expression; note: nearly all actives have a fitted effect of over 65% in size
# STUDY_CONDITIONS: ATXN2-luciferase reporter cells, luminescence, 24 h; series mostly up to 11.5 µM
Screen size: about 2,100 compounds; about 940 (45%) were called active. Another 48% or so got no clear call; they are omitted. Calls come from the whole dose curve; as a rule, active = well fitted inhibition curve with a large enough effect; inconclusive = small, poorly fitted or top-dose-only effect; inactive = no such curve, though single readings can be large or run the other way. The set was probably picked from earlier hits. The list shows a part of the results.
Choose the fitting class; nothing outside active, inactive is accepted.

> print(dat)
                                   compound  label.value
1  CCn1c2ccccc2c2cc(NC(=O)COC(=O)c3cc(S(=O)(=O)N4CCCCC4)ccc3Cl)ccc21       active
2  Cc1cccn2c(=O)c3cc(C(=O)NCCN4CCOCC4)c(=N)n(Cc4ccc(F)cc4)c3nc12       active
3  COc1cc(NS(=O)(=O)c2ccc(N/C=C(\C#N)c3nc4cc(Cl)ccc4o3)cc2)nc(OC)n1       active

Query block: What classification did CC(C)CC(N)c1csc(NC(=O)Nc2ccccc2C(C)(C)C)n1 (configuration not stated) end up with in this test?
Result block: active

Query block: What classification did CC(=O)c1ccc(NC(=O)COC(=O)c2c3c(nc4ccccc24)/C(=C\c2cccs2)CCC3)cc1 end up with in this test?
Result block: active
